system_name: Avi-KRAS WT (2-169) GTP/RAF1 RBD-3xFLAG (51-131) (Homo sapiens, UniProt P01116)
Construct: Avi-KRAS WT (2-169)
Sequence (P01116 2-169 isoform P01116-2): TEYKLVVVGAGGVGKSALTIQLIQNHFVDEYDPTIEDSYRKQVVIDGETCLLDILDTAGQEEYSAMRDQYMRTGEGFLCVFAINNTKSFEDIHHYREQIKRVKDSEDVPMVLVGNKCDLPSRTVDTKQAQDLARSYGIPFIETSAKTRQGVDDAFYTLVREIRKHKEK
protocol_details: Raf1-KRAS WT-GTP disruption HTRF assay (Biological Example 3)
Type: binding
cond: KRAS WT, GTP-loaded
IC50 reference

Check out these entries, answers already filled in.
# compound, property_name, reported_measurement
measured = [
    ("C[C@H](c1cccnc1)N(C)c1nc(OC[C@@]23CCCN2C[C@H](F)C3)nc2c(F)c(-c3ccc(F)c4sc(N)c(C#N)c34)c(C(F)(F)F)cc12 (atropisomer, axis not shown; (aS))", "IC50", "1 to 10 µM"),
    ("CN(Cc1cnco1)c1nc(OC[C@@]23CCCN2C[C@H](F)C3)nc2c(F)c(-c3ccc(F)c4sc(N)c(C#N)c34)c(C(F)(F)F)cc12", "IC50", "1 to 10 µM"),
    ("N#Cc1c(N)sc2c(F)ccc(-c3c(C(F)(F)F)cc4c(N5CCn6nc(C(=O)N7CCOCC7)cc6C5)nc(OCC56CCCN5CC(F)C6)nc4c3F)c12 (stereo not drawn)", "IC50", "1 to 10 µM"),
    ("CCN(c1nc(OC[C@@]23CCCN2C[C@H](F)C3)nc2c(F)c(-c3ccc(F)c4sc(N)c(C#N)c34)c(C(F)(F)F)cc12)[C@H]1CCN(C(=O)O[C@@H]2CCCOC2)C1 (atropisomer, axis not shown)", "IC50", "0.1 to 1 µM"),
    ("N#Cc1c(N)sc2c(F)ccc(-c3c(C(F)(F)F)cc4c(N5CCc6ccncc6C5)nc(OC[C@@]56CCCN5C[C@H](F)C6)nc4c3F)c12", "IC50", "> 10 µM"),
    ("Cc1c(C(=O)N(C)C)nn2c1CN(c1nc(OC[C@@]34CCCN3C[C@H](F)C4)nc3c(F)c(-c4ccc(F)c5sc(N)c(C#N)c45)c(C(F)(F)F)cc13)CC2 (atropisomer, axis not shown; (aS)) [Compound 590]", "IC50", "0.1 to 1 µM"),
]

Hello, I am looking for reported IC50 with Avi-KRAS WT (2-169) GTP/RAF1 RBD-3xFLAG (51-131) (Homo sapiens, UniProt P01116) for CCN(c1nc(OC[C@@]23CCCN2C[C@H](F)C3)nc2c(F)c(-c3ccc(F)c4sc(N)c(C#N)c34)c(C(F)(F)F)cc12)[C@H]1CC(=O)N(C2CC2)C1 (atropisomer, axis not shown) . Could you help?
0.1 to 1 µM

Test system Avi-KRAS WT (2-169) GTP/RAF1 RBD-3xFLAG (51-131) (Homo sapiens, UniProt P01116); read-out IC50; what value for CCN(c1nc(OC[C@@]23CCCN2C[C@H](F)C3)nc2c(F)c(-c3ccc(F)c4sc(N)c(C#N)c34)c(C(F)(F)F)cc12)[C@H]1CCN(C(=O)O[C@H]2CCCOC2)C1 (atropisomer, axis not shown) ?
0.1 to 1 µM

What value of IC50 on Avi-KRAS WT (2-169) GTP/RAF1 RBD-3xFLAG (51-131) (Homo sapiens, UniProt P01116) does CCN(c1nc(OC[C@@]23CCCN2C[C@H](F)C3)nc2c(F)c(-c3ccc(F)c4sc(N)c(C#N)c34)c(C(F)(F)F)cc12)[C@@H]1CN2C(=O)N(C)C[C@]2(C)C1 (atropisomer, axis not shown) have?
0.1 to 1 µM

The measurements presented in this section are drawn from patent US20260042764A1.
